Attribute: TGI
test system: SF-295 CNS; assay: NCI tumour cell line growth inhibition, 48 h
The answer is to be given in µM; state only the numeric part.

Worked cases, TGI given:
>>> assay_value("CC(C)COC1Sc2ccccc2S1")
31.3
>>> assay_value("COc1ccc2c(O)c(/C=C3\\N=Nc4ncccc43)oc2c1C[C@@H]1CCNC[C@H]1F")
4.03

Next:
# input compound: COc1ccccc1[As]=[As]c1ccccc1OC (configuration not stated) ; wanted: its TGI
0.264

* * *

Reported values of TGI for individual entries
tested on: IGROV1 ovarian; assay: NCI tumour cell line growth inhibition, 48 h

>>> assay_value("CC(C)(C)OC(=O)[C@@H]1ON2O[C@H](OC3CCCC3(c3ccccc3)c3ccccc3)C[C@H]3OC(=O)[C@@H]1[C@H]32 (stereo partly drawn)")
"> 100 µM"
>>> assay_value("COc1cc2ncnc(Nc3ccc(Oc4ccnc(C)c4)c(C)c3)c2cc1NC(=O)CC1CCSS1 (stereo not drawn)")
"> 50 µM"

# evaluate next
Name the reported TGI value associated with the compound `COc1ccc2c(c1)CCc1cc(OC)ccc1/[N+]([O-])=[N+]\2[O-]`
35 µM
